Source listed as PubChem BioAssay (NCI).

System: KM12 colon
PROTOCOL: NCI-60 one-dose screen, 48 h
EXPERIMENTAL_SETUP: 10 µM unless noted
About 83,000 compounds went through this panel and 20% of them were active in at least one assay; those are over-represented in the sample as a whole. The source made the active and inactive calls. How the source made its calls: active means growth percent below 10; inactive means the rest.
Classes to choose from: active, inactive

Below, 3 compounds whose answers are already recorded.
> print(dat)
                                   compound      system  category
1  O=C(CCN1C(=O)/C(=C/c2ccc(O)cc2)SC1=S)Nc1ccc(Cl)cc1  KM12 colon  inactive
2         Cc1ccc(C(C)C)cc1C(=O)C[n+]1ccccc1  KM12 colon  inactive
3  O=C1c2cccc3cccc(c23)C(=O)N1Nc1nc(NC2CCCCC2)nc(N2CCOCC2)n1  KM12 colon  inactive

--- query ---
// return assay outcome for Cc1cc(O)c(C2=NN(c3ccc(S(N)(=O)=O)cc3)C(c3ccccc3O)C2)cc1Cl (centres undefined)
active

###

System: SF-295 CNS
PROTOCOL: NCI-60 one-dose screen, 48 h
EXPERIMENTAL_SETUP: 10 µM unless noted
This is part of a sample that, as a whole, favours compounds with a hit. Of some 83,000 tested, about 20% had one in any assay. Calls of active or inactive are those of the source. The calls were made as follows: active = growth percent below 10; inactive = the rest.
Classes to choose from: 1 for active, -1 for inactive

Below, 3 molecules whose answers are already recorded.
> print(dat)
                                   molecule      system  category
1  CC[C@H](C)C(=O)O[C@H]1CCC=C2C=C[C@H](C)[C@H](CC[C@@H]3CC=CC(=O)O3)[C@H]21  SF-295 CNS        -1
2  CCN1C(=O)N(CC)C2Nn3c(s/c(=C\c4ccc([N+](=O)[O-])cc4)c3=O)=NC21 (centres undefined)  SF-295 CNS        -1
3  CNC(=O)c1[nH]cc(-c2ccccc2)c1-c1cc(OC)c2c(c1OC)OCO2  SF-295 CNS        -1

// return assay outcome for `C#C[C@]1(O)CC[C@H]2[C@@H]3CC=C4c5sc(Nc6ccccc6)nc5CC[C@]4(C)[C@H]3CC[C@@]21C`
1

// return assay outcome for `FC(F)(F)c1cc(Nc2ccc3c(OCCCN4CCOCC4)cccc3n2)ccc1Cl`
1

###

System: DU-145 prostate
PROTOCOL: NCI-60 one-dose screen, 48 h
EXPERIMENTAL_SETUP: 10 µM unless noted
About 83,000 compounds went through this panel and 20% of them were active in at least one assay; those are over-represented in the sample as a whole. Activity calls are given as the source filed them. How the source made its calls: active means growth percent below 10; inactive means the rest.
Classes to choose from: 1 = active, 0 = inactive

COMPOUND	CATEGORY
NCCOc1ncccc1/C=C1\C2C=CC=CC2C2C=CC(F)=CC12 (configuration not stated)	1
COc1ccc(S(=O)(=O)n2c3ccccc3n3ncc(-c4nnc(C)o4)c23)cc1	0
CCC(=O)Nc1ccc(-c2nc(-c3cccc(OC)c3)c(-c3ccnc(Br)c3)[nH]2)cc1	0
CC1=NN(c2ccc(S(=O)(=O)O)cc2)C(=O)C1N=Nc1ccc(-c2ccc(N=Nc3ccc(OS(=O)(=O)c4ccc(C)cc4)cc3)c(S(=O)(=O)O)c2)cc1 (configuration not stated)	0
CCOC(=O)c1cn2ncnc(Oc3ccc(NC(=O)NCCN(CC)CC)c(Cl)c3)c2c1C	0

// return assay outcome for `O=C1CCC/C=C\C[C@H]2C=CC(=O)/C2=C/C[C@H](CCc2cccc(C(F)(F)F)c2)O1`
1

// return assay outcome for `CCCCCCn1c(-c2ccc(C(=O)O/N=C(\N)c3ccc4c(c3)OCO4)cc2)nc(-c2ccccc2)c1-c1ccccc1`
1

// return assay outcome for `CCOC(=O)c1sc2ncc(-c3ccc(OC)cc3)n2c1C`
0

// return assay outcome for `Nc1nn(C(=O)Nc2ccc(Cc3ccccc3)cc2)c2ccc(Cl)cc12`
0

// return assay outcome for CC(=O)CC(c1cccs1)c1c(-c2ccccc2)[nH]c2ccccc12 (configuration not stated)
0

// return assay outcome for `Cc1cc2[nH]c(=O)c3c4ncccc4cn3c2cc1C`
0

// return assay outcome for `CCCCn1c(=O)c(-c2cc(-c3ccc(Cl)cc3)nc(-c3ccc(Cl)cc3)c2)cc2cc(Cl)ccc21`
0

// return assay outcome for `O=C1/C(=C/c2ccc(F)cc2)Sc2c(Br)cccc21`
0

// return assay outcome for COc1ccc(C2CC(c3ccc(Nc4ccnc5cc(Cl)ccc45)cc3)=NN2C=O)cc1 (configuration not stated)
0

// return assay outcome for `COc1cc2cc(Oc3ccc(NC(=O)Nc4ccc(F)c(C(F)(F)F)c4)cc3)c(C)nc2cc1OCCN1CCOCC1`
0

// return assay outcome for `CCOc1cccc(NC2=C(Br)C(=O)C(C)=C(C)C2=O)c1`
0

// return assay outcome for `O=C(N/N=C/c1c(Cl)cccc1Cl)c1ccc(C(F)(F)F)nc1Nc1cccc(C(F)(F)F)c1`
0
